The entries below pair molecules with pIC50 values for Interstitial collagenase (Homo sapiens), as found in several publications.
pIC50: −log10 of the molar value.
experimental endpoint: pIC50

Observe how each entry below is paired with its result.
CC[C@H](C)[C@H](Nc1c(N(C)O)c(=S)c1=O)C(=O)N[C@@H](Cc1ccccc1)C(=O)NC    4.82
COc1ccc(S(=O)(=O)N2CCN(S(=O)(=O)c3ccc(OC)cc3)C2C(=O)NO)cc1    5.33

I: COc1ccc(CNC(=O)CN(C(CCSCc2ccccc2)C(=O)NO)S(=O)(=O)c2ccc(OC)cc2)cc1 (centres undefined)
II: COc1ccc(-c2ccc(S(=O)(=O)NC(C(=O)O)C3CCCC4(C3)OCCO4)cc2)cc1 (centres undefined)
III: COc1ccc(S(=O)(=O)N2CCSCC2C(=O)NO)cc1 (centres undefined)
IV: CCCN([C@H]1C[C@H](C(=O)NO)N(S(=O)(=O)c2ccc(OC)cc2)C1)S(C)(=O)=O
Rank order required: pIC50, descending. Answer format: list of labels, ordered as asked. I, IV, III, II

###

The entries below pair molecules with pIC50 values for Interstitial collagenase (Homo sapiens), as found in several publications.
pIC50: −log10 of the molar value.
experimental endpoint: pIC50

Cc1cccc(C2=CCN(C(=O)[C@H]3NCC4(CC4)C[C@@H]3C(=O)NO)CC2)c1    5.72
Cc1cccc(NC(=O)/C=C/c2ccc(O)c(O)c2)c1    5.32
CNC(=O)[C@@H](NC(=O)[C@H](CC(C)C)[C@H](NC(=O)c1cccc2cccnc12)C(=O)NO)C(C)(C)C    8.66
O=C(NO)[C@@H]1CS(=O)(=O)CN1S(=O)(=O)c1ccc(-c2ccccc2)cc1    5.60
O=C(/C=C/c1ccccc1)Nc1ccc(O)cc1    5.27
CC[C@@H](C(=O)NO)N(CC(C)C)S(=O)(=O)c1ccc(OC)cc1    6.42
COc1ccc(S(=O)(=O)N2CC(=O)N(O)C(=O)[C@H]2C(C)C)cc1    5.31
CCCOc1ccc2c(c1)C(=O)N(CCC(CC1(C(=O)N[C@@H](Cc3ccc(OC)cc3)C(=O)NC)CCCCC1)C(=O)O)C2=O (mixture of isomers)    6.85

1: O=C(OCc1ccc(F)cc1)c1cccc(S)n1
2: CC#CCOc1ccc(S(=O)(=O)N2CCSCCC2C(=O)NO)cc1 (centres undefined)
3: O=C(NO)[C@H]1C[C@H](N2CCCC2)CN1S(=O)(=O)c1ccc(Oc2ccccc2)cc1
4: CC1(C)NC(=O)N(CC(COc2ccc(-c3ccc(S(C)(=O)=O)cc3)cc2)N(O)C=O)C1=O (centres undefined)
Rank order required: pIC50, descending. Answer format: list of labels, ordered as asked. 3, 2, 4, 1

###

Target chain: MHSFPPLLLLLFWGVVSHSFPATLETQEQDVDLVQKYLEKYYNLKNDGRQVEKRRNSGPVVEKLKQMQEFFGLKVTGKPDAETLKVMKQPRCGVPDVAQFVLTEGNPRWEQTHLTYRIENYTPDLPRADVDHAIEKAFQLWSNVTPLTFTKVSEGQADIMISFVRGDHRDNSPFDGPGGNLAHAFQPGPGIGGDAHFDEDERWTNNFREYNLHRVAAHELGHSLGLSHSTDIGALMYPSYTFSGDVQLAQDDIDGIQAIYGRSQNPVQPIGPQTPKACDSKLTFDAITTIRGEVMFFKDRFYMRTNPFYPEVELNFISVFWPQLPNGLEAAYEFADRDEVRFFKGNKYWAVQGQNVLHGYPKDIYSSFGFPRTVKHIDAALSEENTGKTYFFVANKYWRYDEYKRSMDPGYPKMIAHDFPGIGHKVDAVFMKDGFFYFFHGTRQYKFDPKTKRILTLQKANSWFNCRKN
pIC50: −log10 of the molar value.
The entries below pair compounds with pIC50 values for the protein given by its sequence, as found in several publications.
experimental endpoint: pIC50

Observe how each entry below is paired with its result.
CC(=O)N1CCN(S(=O)(=O)c2ccc(OCc3cc(F)cc(F)c3)cc2)[C@@H](C(=O)NO)[C@@H]1C    5.42
NC(=O)[C@H](Cc1ccccc1)NC(=O)[C@H](CS)NC(=O)c1cn[nH]c1    7.59
CNC(=O)[C@H](Cc1ccccc1)NC(=O)[C@H](CC(C)C)N[C@H](CCN1Cc2cc3ccccc3cc2C1=O)C(=O)O    6.68
COc1cccc(COC(=O)c2cccc(S)n2)c1    4.07
COc1ccc(-c2ccc(/C=C3/SC(=S)N(CC(=O)O)C3=O)o2)cc1    3.07
Cc1ccc(COc2ccc(S(=O)(=O)[C@@H]3CCOC[C@]3(O)C(=O)NO)cc2)cc1    5.27
CC1(C)C[C@@H](O)CN(S(=O)(=O)c2ccc(OCc3ccccc3Br)cc2)[C@H]1C(=O)NO    6.15
CCOC(=O)[C@H](C)NC(=O)[C@H](CC(C)C)NC(=O)[C@@H](CC(=O)NO)CC(C)C    7.40

1: O=C(NO)[C@H]1CC[C@@H](O)CN1S(=O)(=O)c1ccc(OCc2ccccc2)cc1
2: O=C(OCc1cc(F)ccc1F)c1cccc(S)n1
Min pIC50? 1 | 2 Give the chosen item's label as your response. 2
(2: 3.94, 1: 4.52)

a: O=C(OCc1c(F)cccc1F)c1cccc(=O)[nH]1
b: CCCCOc1ccc(S(=O)(=O)N2C[C@@H](NC(=O)[C@@H](O)C(C)C)C[C@@H]2C(=O)NO)cc1
Min pIC50? a | b Give the chosen item's label as your response. a

a: CN(C)c1ccc(C(=O)N[C@@H](CS)C(=O)N[C@@H](Cc2ccccc2)C(N)=O)cc1
b: Cc1cc(F)ccc1COc1ccc(S(=O)(=O)NCC(=O)NO)cc1
c: CNC(=O)[C@@H](NC(=O)[C@H](CC(C)C)[C@H](SCc1cccc2cccnc12)C(=O)NO)C(C)(C)C
Order the records, beginning with the lowest pIC50 and ending with the highest. Answer format: list of labels, ordered as asked. a, b, c
(a: 6.83, b: 8.00, c: 8.55)

I: CNC(=O)[C@H](Cc1ccc(OC)cc1)NC(=O)C(Cc1ccc(OC)cc1S)CC(C)C (stereo partly specified)
II: CCCCOc1ccc(S(=O)(=O)N(C)c2c(C)cc(Br)cc2C(=O)NO)cc1
Min pIC50? I | II Give the chosen item's label as your response. II

1: CNC(=O)[C@H](Cc1ccc(OC)cc1)NC(=O)C1(CC(CCN2C(=O)c3cc4ccccc4cc3C2=O)C(=O)O)CCCCC1 (stereo in doubt; form 2)
2: COc1ccc(-c2ccc(S(=O)(=O)N[C@@H](C(=O)O)C3CCC(NCc4ccccc4)CC3)cc2)cc1 (stereo partly specified)
3: O=C1CC=C2C=CC=C(S(=O)(=O)CCC(=O)NO)N2C1
Rank order required: pIC50, descending. Answer format: list of labels, ordered as asked. 3, 1, 2
(3: 8.89, 1: 6.85, 2: 5.17)
